Each recorded value in this set is attributed to the supplement of paper PMC10567573.

Below: a set of entries, each annotated with reported protein stability index.
B1: TOR1AIP2 (parent)
chain: HHVADAYTSSQKVSPIQIDGAGRT

variants of: B1; experiment: protein stability index of a GFP-peptide fusion (GPS, HEK-293T) (PSI 1-6); higher = more stable; details: c terminus: a fixed tail appended;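 also: lentivirally expressed fusions sorted by FACS into six bins by GFP to DsRed ratio, PSI derived from sequencing read proportions per bin multiplied by bin number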
quantityKind: protein stability index

[[record]]
mutant = "S10E"
result = 3.98

[[record]]
mutant = "H1N"
result = 4.53

[[record]]
mutant = "K12V"
result = 3.47

[[record]]
mutant = "K12H"
result = 3.54

[[record]]
mutant = "A6M"
result = 3.46

[[record]]
mutant = "R23D"
result = 4.11

[[record]]
mutant = "V3P"
result = 4.2

[[record]]
mutant = "Q17S"
result = 3.69

[[record]]
mutant = "H1S"
result = 4.3

[[record]]
mutant = "K12S"
result = 3.77

[[record]]
mutant = "Q11I"
result = 3

[[record]]
mutant = "A6G"
result = 4.39

[[record]]
mutant = "A6E"
result = 4.77

[[record]]
mutant = "D19A"
result = 3.01

[[record]]
mutant = "A21Q"
result = 3.85

[[record]]
mutant = "I16T"
result = 4.13

[[record]]
mutant = "I16A"
result = 3.72

[[record]]
mutant = "V13C"
result = 2.92

[[record]]
mutant = "R23F"
result = 3.12

[[record]]
mutant = "K12Q"
result = 3.86

[[record]]
mutant = "A4Y"
result = 4.04

[[record]]
mutant = "G20F"
result = 3.06

